Provenance of the data: paper PMC3631442

Biological target: Bfl-1 (Homo sapiens, UniProt Q16548)
Sequence (Q16548 1-151 limits assumed): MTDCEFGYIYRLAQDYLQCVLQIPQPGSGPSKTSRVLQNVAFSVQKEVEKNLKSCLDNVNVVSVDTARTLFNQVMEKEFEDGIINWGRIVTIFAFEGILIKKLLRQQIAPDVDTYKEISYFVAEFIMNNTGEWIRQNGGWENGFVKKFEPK
Assay: Bio-layer interferometry
Format: binding
Observation type: Kd

>  <Substance>
Ac-RPEIWIAQELRRAGDVLNAYYAR-NH2 [FA1]

>  <Observation type>
Kd

>  <Val>
≤ 300 pM

$$$$
